# Test system: CCRIS mutagenicity, Ames/micronucleus/aberration tests
# TEST SUMMARY: CCRIS mutagenicity studies
# STATED CONDITIONS: Test System: AMES SALMONELLA TYPHIMURIUM; Strain/Indicator: TA98; Metabolic Activation: HAMSTER, LIVER, S-9, AROCLOR 1254 (10%); Method: PREINCUBATION
Calls of active or inactive are those of the source. No rule for the calls is given here.
Answer with one of the outcomes active, inactive

Can you look up the reported call for COc1ccc(CN(CCN(C)C)c2ccccn2)cc1 for me?
inactive

Then CN1CCC(CN2c3ccccc3Sc3ccccc32)C1 (configuration not stated) ?
inactive

Let us now turn to Cc1c(N=C=O)cccc1N=C=O
active

Next molecule: O=P(OC(CCl)CCl)(OC(CCl)CCl)OC(CCl)CCl
inactive

Next record, please: Nc1ccc([N+](=O)[O-])c(N)c1
active

Same for C=C(C)c1ccccc1
inactive

Could you do the same for Cc1cc(-c2cc(C)c(N)c(C)c2)cc(C)c1N , please?
inactive
